# Test system: Meloidogyne hapla J2
# assay: proportion of mobile M. hapla J2 relative to DMSO control (fraction of DMSO control); higher = more viable, less nematicidal, active = 0.7 or less
# condition_info: 60 µM; 5 days; temperature: 20 °C

| compound | system_under_test | proportion of mobile M. hapla J2 |
| --- | --- | --- |
| O=C(CSc1nnc(-c2ccco2)o1)c1ccccc1 | Meloidogyne hapla J2 | 0.974 |
| O=C(CSc1nnc(-c2ccncc2)o1)Nc1cccc(Cl)c1Cl | Meloidogyne hapla J2 | 0.818 |
| CCOc1nc(-c2ccccc2)ccc1-c1noc(-c2ccccc2F)n1 | Meloidogyne hapla J2 | 0.926 |
| C=CCSc1nnc(-c2ccc(Br)cc2)o1 | Meloidogyne hapla J2 | 0.591 |
| CCCOc1ccc(-c2ccc(-c3nc(-c4ccccn4)no3)cc2)cc1 | Meloidogyne hapla J2 | 0.969 |
| O=C(CSc1nnc(-c2ccccc2Cl)o1)Nc1ccc(Br)cn1 | Meloidogyne hapla J2 | 0.851 |
| COc1ccc(-c2noc(CSc3nc4cc(C)ccc4[nH]3)n2)cc1 | Meloidogyne hapla J2 | 0.861 |
| Cc1ccc(NC(=O)CSc2nnc(-c3ccccc3)o2)cc1C | Meloidogyne hapla J2 | 0.983 |
| COc1ccc(NC(=O)c2ccccc2-c2nc(-c3ccccc3C)no2)cc1 | Meloidogyne hapla J2 | 0.81 |
| Clc1ccccc1-c1nc(-c2ccc3c(c2)OCO3)no1 | Meloidogyne hapla J2 | 0.983 |
| Cc1cc(OC(C)c2nc(-c3ccccn3)no2)ccc1Cl (stereo not given) | Meloidogyne hapla J2 | 1.03 |
| CC(C)C(=O)Nc1ccccc1-c1nc(-c2ccncc2)no1 | Meloidogyne hapla J2 | 0.987 |
| Cc1ccc(C(=O)CSc2nnc(-c3ccco3)o2)o1 | Meloidogyne hapla J2 | 0.906 |
| CCCc1nnc(CSc2nnc(-c3ccc(Cl)cc3)o2)o1 | Meloidogyne hapla J2 | 0.983 |
| Cc1cc(NC(=O)CSc2nnc(-c3ccc(Cl)cc3Cl)o2)no1 | Meloidogyne hapla J2 | 0.833 |
| Brc1ccc(-c2noc(CSc3ccccc3)n2)cc1 | Meloidogyne hapla J2 | 1.09 |
| CNC(=O)c1ccccc1-c1nc(-c2ccc(F)cc2)no1 | Meloidogyne hapla J2 | 0.987 |
| CCNC(=O)c1ccccc1-c1nc(-c2ccc(OC)cc2)no1 | Meloidogyne hapla J2 | 0.785 |
| COc1cccc(NC(=O)CSc2nnc(-c3ccc(C)cc3)o2)c1 | Meloidogyne hapla J2 | 1.04 |
| CC(C)CCC(=O)Nc1ccccc1-c1nc(-c2ccccn2)no1 | Meloidogyne hapla J2 | 1.03 |
| Cc1ccc(CSc2nnc(-c3cccc(Br)c3)o2)c(C)c1 | Meloidogyne hapla J2 | 1.02 |
| Cc1ccc(-c2nnc(SCC(=O)Nc3cc(C)c(C)cc3Br)o2)cc1 | Meloidogyne hapla J2 | 0.792 |
| COc1cccc(OCc2nc(-c3cccc(C)c3)no2)c1 | Meloidogyne hapla J2 | 0.866 |
| O=C(CSc1nnc(-c2cccnc2)o1)c1ccc(Br)cc1 | Meloidogyne hapla J2 | 1.04 |
| Ic1ccc(CSc2nnc(-c3ccco3)o2)cc1 | Meloidogyne hapla J2 | 0.872 |
